Tested system: Coagulation factor XI (Homo sapiens, UniProt P03951)
Sequence (P03951 19-387 limits assumed): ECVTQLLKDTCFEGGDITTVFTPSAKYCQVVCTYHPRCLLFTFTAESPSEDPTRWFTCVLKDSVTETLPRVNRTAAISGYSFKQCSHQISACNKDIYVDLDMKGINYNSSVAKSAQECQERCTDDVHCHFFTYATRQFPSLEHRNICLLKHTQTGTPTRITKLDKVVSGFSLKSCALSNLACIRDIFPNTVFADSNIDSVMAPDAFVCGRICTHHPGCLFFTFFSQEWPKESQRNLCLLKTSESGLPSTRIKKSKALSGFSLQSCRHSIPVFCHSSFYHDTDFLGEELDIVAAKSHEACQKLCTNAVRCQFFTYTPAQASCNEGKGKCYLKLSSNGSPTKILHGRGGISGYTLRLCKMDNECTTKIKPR
Sequence (P03951 388-625 limits assumed): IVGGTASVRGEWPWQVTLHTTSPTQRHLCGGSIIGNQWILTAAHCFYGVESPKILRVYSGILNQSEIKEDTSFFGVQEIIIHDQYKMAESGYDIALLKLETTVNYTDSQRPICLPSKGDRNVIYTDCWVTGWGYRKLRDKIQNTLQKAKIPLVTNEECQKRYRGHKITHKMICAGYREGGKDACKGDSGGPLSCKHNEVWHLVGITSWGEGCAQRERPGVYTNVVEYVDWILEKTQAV
Reported property: IC50 (µM)
State the answer as a number, implicitly in µM.

[Q] Name the value of IC50 reported for CO[C@H]1C[C@@](O)(Cc2ccccc2)C(=O)N2C(C(=O)NCc3ccc(C(=N)N)cc3)CC[C@@H]12 (some centres not stated) when tested on Coagulation factor XI (Homo sapiens, UniProt P03951).
[A] 35

* * *

# IC50 listing for each entry below
Tested system: Coagulation factor VII (Homo sapiens, UniProt P08709)
Sequence (P08709 whole entry): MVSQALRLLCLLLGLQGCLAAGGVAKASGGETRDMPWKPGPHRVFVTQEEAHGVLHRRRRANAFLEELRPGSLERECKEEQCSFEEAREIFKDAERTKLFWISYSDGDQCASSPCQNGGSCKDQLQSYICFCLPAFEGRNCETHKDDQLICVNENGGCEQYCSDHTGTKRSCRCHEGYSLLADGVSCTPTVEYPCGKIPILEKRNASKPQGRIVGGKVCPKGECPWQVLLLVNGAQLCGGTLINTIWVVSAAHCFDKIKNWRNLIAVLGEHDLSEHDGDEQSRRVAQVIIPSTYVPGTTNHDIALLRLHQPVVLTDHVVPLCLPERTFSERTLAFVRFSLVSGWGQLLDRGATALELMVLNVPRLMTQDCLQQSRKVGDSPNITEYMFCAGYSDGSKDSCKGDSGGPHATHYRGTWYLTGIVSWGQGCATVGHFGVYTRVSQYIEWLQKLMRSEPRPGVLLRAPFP
The response must be a number in µM with no trailing unit.

1. N=C(N)c1ccc(CNC(=O)C2CC[C@H]3CC[C@@](O)(Cc4ccccc4)C(=O)N23)cc1 (some centres not stated)
1.1

Next up:
[Q] Answer with IC50 of CO[C@H]1C[C@@](O)(Cc2ccccc2)C(=O)N2C(C(=O)NCc3ccc(C(=N)N)cc3)CC[C@@H]12 (some centres not stated) measured for Coagulation factor VII (Homo sapiens, UniProt P08709).
[A] 0.52
